I'd be grateful if you could share measured T/C for these entries.
# Tested on: P388 leukemia ip, CD2F1 mice, survival T/C
# EXPERIMENT: NCI In Vivo Anticancer Drug Screen. Data for tumor model P388 Leukemia (intraperitoneal) in CD2F1 (CDF1) mice
# CONDITION_SUMMARY: endpoint: median survival time; dose: 200.0 mg/kg/injection; schedule: Q01DX009 (ip); vehicle: Klucel (hydroxypropylcellulose) (HPC); higher = longer survival
Toxic doses and inconclusive results are not listed.

Entry O=C1CC2(CCCC2)C(=O)N1c1cccc([N+](=O)[O-])c1 : reported T/C = ? 101 % of control

Try Nc1nc(N)sc(=S)n1 next. 101 % of control

Also CC(C)(S)C(N)C(=O)O (stereo unspecified) ? 94 % of control

Request: O=C(NCc1ccncc1)Nc1ccc(Cc2ccc(NC(=O)NCc3ccncc3)cc2)cc1 103 % of control

Same for O=C(OCCCN1CCCC1)C(c1ccccc1)C1C=CCC1 (stereo unspecified) 100 % of control

# iterate: CC1CCOn2c1nc1ccccc1c2=O (stereo unspecified) 113 % of control

What about Nc1cc(Cl)ccc1-c1ccccc1 ? 92 % of control

For NC(=O)NC1(C(=O)O)CCCC1 then? 105 % of control

Ok, now Fc1ccc(N=Cc2cccs2)cc1 110 % of control

Same thing, different compound: CC1(C)CC(=O)C=C(NCCCCNC2=CC(=O)CC(C)(C)C2)C1 95 % of control

Same lookup for Cc1oc(-c2cccc(F)c2)nc1C(N)=O , please. 100 % of control

Subsequent entry: CCOC(=O)C1=C(C)O/C(=C/C=C/c2ccccc2)C1=O 103 % of control

Quick one: CCOC(=O)C1=C(C)NC(C)=C(C(=O)OCC)C1c1ccc(OC)cc1 101 % of control

Input O=S(=O)(c1ccc(NC(=S)NCc2ccco2)cc1)N1CCCCC1 92 % of control

Same for Clc1ccc(-c2csc(NCC3CCCO3)n2)cc1 (stereo unspecified) 100 % of control

Repeat with CCOC(=O)C1(CC)C(=O)C=C(c2ccccc2)CC1c1ccccc1 (stereo unspecified) 94 % of control

Further, for CCCCCCCCCCCC(=O)Nc1ncc([N+](=O)[O-])s1 ? 106 % of control

Queued: CC(C)C1(c2ccsc2)NC(=O)NC1=O (stereo unspecified) 96 % of control

Next up: O=C(CS(=O)(=O)c1ccccc1)CS(=O)(=O)c1ccccc1 99 % of control

What do we get for CC(=O)OC1=CC(=O)N(C(=O)c2ccc(Cl)cc2)C1 ? 115 % of control

Also CCOC(=O)c1ccccc1SC(C[N+](=O)[O-])c1ccccc1 (stereo unspecified) , if possible. 110 % of control

Do the same for CCCOC(CN(C)C)C(Cl)(Cl)Cl (stereo unspecified) please 100 % of control

Try this compound next: O=C1c2cc(Br)ccc2OC2CCON12 (stereo unspecified) 94 % of control

What would you report for FC(F)(F)c1nnc(-c2ccc3ccccc3c2)nn1 ? 100 % of control

Then CCSC(=O)c1ccc(S(=O)(=O)CC)cc1 ? 106 % of control

Please do the same for COc1ccc([N+](=O)[O-])cc1NS(=O)(=O)c1ccc(NC(C)=O)cc1 as well. 99 % of control

----------
Provide the recorded T/C for the entries that follow.
# Test system: P388 leukemia ip, CD2F1 mice, survival T/C
# EXPERIMENT: NCI In Vivo Anticancer Drug Screen. Data for tumor model P388 Leukemia (intraperitoneal) in CD2F1 (CDF1) mice
# CONDITION_SUMMARY: endpoint: median survival time; dose: 120.0 mg/kg/injection; schedule: Q01DX005 (ip); vehicle: saline with Tween-80; higher = longer survival
Toxic doses and inconclusive results are not listed. Peptide text beside a SMILES is read from it.

Short answer please: T/C, P388 leukemia ip, CD2F1 mice, survival T/C, entry COc1cc(C2c3cc4c(cc3OC(O)C2C)OCO4)cc(OC)c1OC (stereo not given) 117 % of control

Same lookup for CSC(=CC(=O)c1ccco1)SC , please. 96 % of control

Please answer likewise for Cc1c(O)ccc2c1OCC(c1ccc(Cl)cc1)C2 (stereo not given) 91 % of control

Record: CCOC(=O)/C=C1\CONC(c2ccc(OC)cc2)=N1 97 % of control

COC(=O)C(CCCN=C(N)N)NC(=O)C(N)CCCCN (stereo not drawn) (H-Lys-Arg-OMe; configuration not given here) ? 100 % of control

Now the same for COC(=O)/C=C1/Nc2ccc(Cl)cc2C(=O)NC1=O 93 % of control

Could you do the same for COc1ccc(-n2nc3c(ccc4ccccc43)c2NC2CCCCC2)cc1 , please? 98 % of control

COc1cc(C(c2cc3c(cc2O)OCO3)N2CCN(C(c3ccc(O)c(OC)c3)c3cc4c(cc3O)OCO4)CC2)ccc1O (stereo not given) ? 92 % of control

Same question, CC(C)(C)NC(=O)c1cccc(C(N)=O)n1 this time 93 % of control

Then this molecule: O=S(=O)(Nc1ncccn1)c1ccc(NCc2c3ccccc3nc3cc(Cl)ccc23)cc1 86 % of control

----------
Field: T/C. Provide a value for each of the molecules that follow.
# System: P388 leukemia ip, CD2F1 mice, survival T/C
# EXPERIMENT: NCI In Vivo Anticancer Drug Screen. Data for tumor model P388 Leukemia (intraperitoneal) in CD2F1 (CDF1) mice
# CONDITION_SUMMARY: endpoint: median survival time; dose: 50.0 mg/kg/injection; schedule: Q01DX005 (ip); vehicle: Klucel (hydroxypropylcellulose) (HPC); higher = longer survival
Toxic doses and inconclusive results are not listed.

Could you share which T/C value was measured for CCCCOC(C(=O)OCCN(CC)CC)(c1ccccc1)c1ccccc1 ? 108 % of control

Likewise for CC(NC(=O)C(CO)NC(=O)OCc1ccccc1)C(=O)O (configuration not stated) ? 118 % of control

Thanks! And C/C(=N/N/C=N/S(C)(=O)=O)c1ccccc1 ? 103 % of control

Ok, now Cc1ccc2nc3cc(N)ccc3c(-c3ccc(N)cc3)c2c1 97 % of control

How about this molecule: O=C(c1nc2ccccc2[nH]1)N1CCN(c2ccccc2)CC1 104 % of control

Try this molecule next: CC(C)(C)SCC(NC(=O)OCC1c2ccccc2-c2ccccc21)C(=O)O (configuration not stated) 100 % of control

# repeat for O=C(/C=C/c1ccc(Cl)cc1)c1ccccc(=O)c1O 101 % of control

And what about the molecule Nc1nc(=O)n(C2CCCCO2)cc1I (configuration not stated) ? 105 % of control

Check CC(O)C(C(c1ccccc1)N1CCOCC1)N1CCOCC1 (configuration not stated) too. 99 % of control

Continue with CN(C)C1=NC(NC2CCCCC2)(N(C)C)OC(N(C)C)=N1 (configuration not stated) 96 % of control

// next record COC1=CC(=O)C2CC=CC(CC(=O)O)C2(C)C1=O (configuration not stated) 108 % of control

Query CC(=Nc1ccc2c(c1)C(=O)c1ccc(N=C(C)N(C)C)cc1C2=O)N(C)C next 100 % of control

----------
# Tested on: P388 leukemia ip, CD2F1 mice, survival T/C
# EXPERIMENT: NCI In Vivo Anticancer Drug Screen. Data for tumor model P388 Leukemia (intraperitoneal) in CD2F1 (CDF1) mice
# CONDITION_SUMMARY: endpoint: median survival time; dose: 200.0 mg/kg/injection; schedule: Q01DX009 (ip); vehicle: saline with Tween-80; higher = longer survival
Toxic doses and inconclusive results are not listed.
METRIC_NAME: T/C

Which T/C value is on record for [S]=[W]=[S] ? 96 % of control

Also, Cc1ccc(C)c(C2NC(=O)c3ccccc3N2)c1 (centres undefined) please. 112 % of control

Please answer likewise for CC(C)(C)CC(C)(C)c1ccc(OCc2cccc(Cl)c2)cc1 95 % of control

Consider next the compound Cc1ccc(NC(=S)NCCc2ccccn2)cc1C in the same way. 100 % of control

// next record C[Si]1(C)N[Si](C)(C)N[Si](C)(C)N1 108 % of control

Record: O=c1c(-c2ccccc2)c(O)on1/C=C1/C=CC=N1 103 % of control

Request: CN(c1ccccc1)c1c2c(oc(=O)c1Cl)-c1ccccc1SC2 93 % of control

What do you have for CCNCc1nc2sc3c(c2c(=O)[nH]1)CCCC3 ? 99 % of control

Please give the result for Cc1cc(C(=O)O)c(C)c([N+](=O)[O-])c1 too. 98 % of control

Now consider CCOC(=O)c1cnc2cc3c(c[nH]n3C(c3ccccc3)(c3ccccc3)c3ccccc3)cc2c1=O . 97 % of control

Same question for Cc1ccc(Nc2ccc(Nc3ccc(C)cc3)c3c2C(=O)c2cccc(O)c2C3=O)cc1 please. 97 % of control

Next compound up: CC(C)=CCC/C(C)=C/CC/C(C)=C/CS(=O)(=O)c1ccc(C)cc1 109 % of control

Could you do the same for COc1ccc(N=NC2C(=O)N(C(=O)c3ccncc3)N=C2C)cc1 (centres undefined) , please? 96 % of control

Then what about the compound CC(=O)Nc1nc(C)c([N+](=O)[O-])s1 ? 100 % of control

Entry to check: COc1cc(OC)c(OC)cc1/C=C\c1nccc2ccccc12 96 % of control

Try this compound next: CCOC(=O)c1c[nH][nH]c1=O 100 % of control

Same question for O=C(N/N=C/c1ccc(F)cc1)c1ccncc1 please. 90 % of control

Also, O=C(O)O please. 95 % of control

// same read-out, input: O=[N+]([O-])c1cnc(-c2ccc(F)cc2)n1CCO 112 % of control

Another compound: CCC(=O)Sc1ccccc1C(=O)Nc1ccc(Cl)cc1 97 % of control

Same question for CCn1c2nc(=O)n(C)c(=O)c-2cc2ccccc21 please. 116 % of control

Try the compound CCCCOn1nnc2ccccc21 113 % of control

Note, next up: NC(=S)N/N=C\C(=O)c1cccc(O)c1 105 % of control

What do you get for COc1ccc(CCN2C(=O)CSC2=S)cc1OC ? 90 % of control

COc1cccc(/C=N/NC(=O)c2c(-c3ccccc3)noc2C)c1O ? 110 % of control

Next entry: Nc1ccccc1SCc1ccccc1 108 % of control

Now the same for Nc1nc(Sc2ccccn2)ccc1[N+](=O)[O-] 102 % of control

Ok, now CN(C)CC1(C)C(=O)N(C)C(=O)N(C2CCCCC2)C1=O (centres undefined) 117 % of control

What about COc1cc2c(cc1OC)C(Cc1ccc3cc(OC)c(OC)cc3c1)=NCC2 ? 90 % of control
